Target: Mitogen-activated protein kinase kinase kinase 5 (Homo sapiens)
Sequence (Q99683 whole entry): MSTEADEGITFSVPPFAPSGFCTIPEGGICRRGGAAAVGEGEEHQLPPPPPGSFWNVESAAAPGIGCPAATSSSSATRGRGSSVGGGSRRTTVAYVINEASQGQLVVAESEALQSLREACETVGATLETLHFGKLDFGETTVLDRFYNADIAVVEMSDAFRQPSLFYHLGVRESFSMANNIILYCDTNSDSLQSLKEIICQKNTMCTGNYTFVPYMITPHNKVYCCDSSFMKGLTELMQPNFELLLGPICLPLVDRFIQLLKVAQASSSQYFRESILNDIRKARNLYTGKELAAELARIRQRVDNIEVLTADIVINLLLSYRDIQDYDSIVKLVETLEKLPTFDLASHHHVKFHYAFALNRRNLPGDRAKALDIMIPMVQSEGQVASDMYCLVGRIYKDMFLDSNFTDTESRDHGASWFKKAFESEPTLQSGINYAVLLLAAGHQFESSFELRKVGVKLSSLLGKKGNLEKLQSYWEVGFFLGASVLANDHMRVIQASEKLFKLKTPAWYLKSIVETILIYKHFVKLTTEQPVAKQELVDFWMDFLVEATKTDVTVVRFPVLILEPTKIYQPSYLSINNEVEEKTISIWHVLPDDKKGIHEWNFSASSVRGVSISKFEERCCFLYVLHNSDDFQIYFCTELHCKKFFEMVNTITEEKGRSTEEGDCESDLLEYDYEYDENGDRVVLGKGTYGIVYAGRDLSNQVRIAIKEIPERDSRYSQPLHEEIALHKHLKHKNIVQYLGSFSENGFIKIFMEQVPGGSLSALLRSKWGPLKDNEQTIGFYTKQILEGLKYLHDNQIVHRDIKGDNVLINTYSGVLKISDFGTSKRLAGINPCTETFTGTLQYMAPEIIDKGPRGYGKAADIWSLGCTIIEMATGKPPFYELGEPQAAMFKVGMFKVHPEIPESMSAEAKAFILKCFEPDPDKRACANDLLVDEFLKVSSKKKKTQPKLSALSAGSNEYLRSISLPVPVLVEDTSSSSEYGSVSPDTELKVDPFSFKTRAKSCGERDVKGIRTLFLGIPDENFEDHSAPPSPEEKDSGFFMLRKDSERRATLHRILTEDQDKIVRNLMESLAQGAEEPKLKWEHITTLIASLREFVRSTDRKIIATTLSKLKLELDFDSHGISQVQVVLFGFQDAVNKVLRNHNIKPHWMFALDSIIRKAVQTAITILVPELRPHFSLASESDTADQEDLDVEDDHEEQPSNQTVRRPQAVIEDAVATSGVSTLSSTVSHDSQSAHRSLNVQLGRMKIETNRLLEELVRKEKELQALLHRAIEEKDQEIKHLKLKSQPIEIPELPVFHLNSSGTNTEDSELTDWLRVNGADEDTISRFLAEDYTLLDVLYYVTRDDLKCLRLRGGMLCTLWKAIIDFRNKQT
Test: Inhibition of human full length recombinant ASK1 using STK-Substrate-3 biotin as substrate in presence of ATP measured after 2 hrs by […] kinase assay
MEASURED_PARAMETER: IC50 (nM)

>  <COMPOUND>
CC(C)n1cnnc1-c1ccc2[nH]nc(-c3cccc(-c4cnn(C5CCOCC5)c4)c3)c2c1

>  <RESULT_UNITS>
nM

>  <IC50>
50.1

$$$$
>  <COMPOUND>
COCCNC(=O)c1cccc(-c2n[nH]c3ccc(-c4nncn4C(C)C)cc23)c1

>  <RESULT_UNITS>
nM

>  <IC50>
245

$$$$
>  <COMPOUND>
CCOC(C)n1cc(-c2cccc(-c3n[nH]c4ccc(-c5nncn5C(C)C)cc34)c2)cn1 (configuration not stated)

>  <RESULT_UNITS>
nM

>  <IC50>
29.9

$$$$
>  <COMPOUND>
CC(C)n1cnnc1-c1ccc2[nH]nc(-c3cccc(-c4cccnc4)c3)c2c1

>  <RESULT_UNITS>
nM

>  <IC50>
283

$$$$
>  <COMPOUND>
CC(C)n1cnnc1-c1ccc2[nH]nc(-c3cccc(C(=O)NC4CC4)c3)c2c1

>  <RESULT_UNITS>
nM

>  <IC50>
271

$$$$

A. c1cc(-c2n[nH]c3ccc(-c4cn[nH]c4)cc23)cc(-n2cnc(C3CC3)c2)c1
B. Cc1ccc(-c2n[nH]c3ccc(-c4nncn4C(C)C)cc23)cc1-n1cnc(C2CC2)c1
Exercise: Between the entries labeled A and B , whose measured IC50 is lower? Select an item and report its label.
Solution: B
